- Tested on: Staphylococcus aureus 241
- Experiment: Antibacterial activity in vitro (MIC, agar dilution)
- Assay type: cell-based
- Run conditions: resistant strain Staphylococcus aureus 241
Field: minimum inhibitory concentration (MIC). Provide a value for each of the compounds that follow.
Give a bare numeral; the unit µg/mL is implied.

[Q] Note down minimum inhibitory concentration (MIC) recorded for CO/N=C1\CN(c2c(F)c(N)c3c(=O)c(C(=O)O)cn(C4CC4)c3c2F)CC1(C)CN.Cl (racemic) [Racemate of Example 14 Compound]
[A] 0.025

[Q] Check the records and state minimum inhibitory concentration (MIC) for CO/N=C1\CN(c2cc3c(cc2F)c(=O)c(C(=O)O)cn3C2CC2)CC1(C)CN.Cl (racemic) [Racemate of Example 19 Compound]
[A] 0.391

[Q] Indicate the recorded minimum inhibitory concentration (MIC) value for this compound: CO/N=C1\CN(c2c(F)c(N)c3c(=O)c(C(=O)O)cn(C4CC4)c3c2F)CC1(C)CN.Cl (single isomer, unassigned) [Enantiomer of Example 14 Compound]
[A] 0.195

---

- System: Staphylococcus aureus 208E
- Experiment: Antibacterial activity in vitro (MIC, agar dilution)
- Format: cell-based
- Run conditions: resistant strain Staphylococcus aureus 208E
Measured parameter: minimum inhibitory concentration (MIC) (µg/mL)
Value expressed in µg/mL; do not type the unit.

[Q] Fill in reported minimum inhibitory concentration (MIC) for this entry: CO/N=C1\CN(c2nc3c(cc2F)c(=O)c(C(=O)O)cn3C2CC2)CC1(C)CN.Cl (racemic) [Racemate of Example 9 Compound]
[A] 0.007

[Q] Please give the documented minimum inhibitory concentration (MIC) of CO/N=C1\CN(c2cc3c(cc2F)c(=O)c(C(=O)O)cn3C2CC2)CC1(C)CN.Cl (single isomer, unassigned) [Enantiomer of Example 19 Compound]
[A] 0.098

[Q] Give the reported minimum inhibitory concentration (MIC) for this compound. CO/N=C1\CN(c2c(F)c(N)c3c(=O)c(C(=O)O)cn(C4CC4)c3c2F)CC1(C)CN.Cl (single isomer, unassigned) [Enantiomer of Example 14 Compound]
[A] 0.013

[Q] Using known records, supply minimum inhibitory concentration (MIC) for CO/N=C1\CN(c2cc3c(cc2F)c(=O)c(C(=O)O)cn3C2CC2)CC1(C)CN.Cl (racemic) [Racemate of Example 19 Compound]
[A] 0.013

[Q] Dear colleague, please send me the reported minimum inhibitory concentration (MIC) for CO/N=C1\CN(c2nc3c(cc2F)c(=O)c(C(=O)O)cn3C2CC2)CC1(C)CN.Cl (single isomer, unassigned) [Enantiomer of Example 9 Compound] when you can.
[A] 0.049

---

Record form. Attribute: MIC. Fill in for each entry.
- Tested on: Staphylococcus aureus 503
- Experiment: Antibacterial activity in vitro (MIC, agar dilution)
- Format: cell-based
- Run conditions: standard strain Staphylococcus aureus 503, read-out: minimum inhibitory concentration (MIC)
Give a bare numeral; the unit ng/mL is implied.

[Q] Please list MIC recorded for the compound C[C@@H]1CN(c2c(F)c(N)c3c(=O)c(C(=O)O)cn(C4CC4)c3c2F)C[C@H](C)N1 [Sparfloxacin, sparfloxacin]
[A] 49

[Q] Tell me MIC reported for CO/N=C1\CN(c2nc3c(cc2F)c(=O)c(C(=O)O)cn3C2CC2)CC1(C)CN.Cl (single isomer, unassigned; (-)) [Example 9]
[A] 4

[Q] Return value of MIC for input CO/N=C1\CN(c2cc3c(cc2F)c(=O)c(C(=O)O)cn3C2CC2)CC1(C)CN.Cl (single isomer, unassigned; (-)) [Example 19] , no commentary.
[A] 7

[Q] For the compound O=C(O)c1cn(C2CC2)c2cc(N3CCNCC3)c(F)cc2c1=O [Ciprofloxacin, ciprofloxacin] , give its measured MIC value.
[A] 391

---

Hi there, I'd appreciate the recorded minimum inhibitory concentration (MIC) for every entry that follows.
- Test system: Staphylococcus aureus 88E
- Experiment: Antibacterial activity in vitro (MIC, agar dilution)
- Format: cell-based
- Run conditions: resistant strain Staphylococcus aureus 88E
Field: numeric (ng/mL). Do not append units.

[Q] Tell us which minimum inhibitory concentration (MIC) value is on record for CO/N=C1\CN(c2nc3c(cc2F)c(=O)c(C(=O)O)cn3C2CC2)CC1(C)CN.Cl (racemic) [Racemate of Example 9 Compound]
[A] 7

[Q] Give a short answer stating reported minimum inhibitory concentration (MIC) for CO/N=C1\CN(c2nc3c(cc2F)c(=O)c(C(=O)O)cn3C2CC2)CC1(C)CN.Cl (single isomer, unassigned) [Enantiomer of Example 9 Compound] .
[A] 25

[Q] Read off the recorded minimum inhibitory concentration (MIC) for CO/N=C1\CN(c2c(F)c(N)c3c(=O)c(C(=O)O)cn(C4CC4)c3c2F)CC1(C)CN.Cl (single isomer, unassigned) [Enantiomer of Example 14 Compound]
[A] 7

[Q] Output minimum inhibitory concentration (MIC) of CO/N=C1\CN(c2cc3c(cc2F)c(=O)c(C(=O)O)cn3C2CC2)CC1(C)CN.Cl (single isomer, unassigned) [Enantiomer of Example 19 Compound]
[A] 98

[Q] Respond only with minimum inhibitory concentration (MIC) recorded for CO/N=C1\CN(c2cc3c(cc2F)c(=O)c(C(=O)O)cn3C2CC2)CC1(C)CN.Cl (racemic) [Racemate of Example 19 Compound]
[A] 13

---

- Tested on: Staphylococcus aureus 285
- Experiment: Antibacterial activity in vitro (MIC, agar dilution)
- Format: cell-based
- Run conditions: standard strain Staphylococcus aureus 285, read-out: minimum inhibitory concentration (MIC)
I'd appreciate it if you could supply MIC values for the items below.
Report only the number, with the unit ng/mL understood.

[Q] Report measured MIC; entry is O=C(O)c1cn(C2CC2)c2cc(N3CCNCC3)c(F)cc2c1=O
[A] 781

[Q] Report measured MIC; entry is C[C@@H]1CN(c2c(F)c(N)c3c(=O)c(C(=O)O)cn(C4CC4)c3c2F)C[C@H](C)N1
[A] 9

[Q] Return value of MIC for input CO/N=C1\CN(c2cc3c(cc2F)c(=O)c(C(=O)O)cn3C2CC2)CC1(C)CN.Cl (single isomer, unassigned; (-)) , no commentary.
[A] 7

[Q] Retrieve MIC measured for CO/N=C1\CN(c2nc3c(cc2F)c(=O)c(C(=O)O)cn3C2CC2)CC1(C)CN.Cl (single isomer, unassigned; (-)) and print it.
[A] 7
